Tgt: T1, GIP Receptor (Homo sapiens, UniProt P48546)
T1 construct: host or cells: HEK293T
T1 sequence (P48546 22-466): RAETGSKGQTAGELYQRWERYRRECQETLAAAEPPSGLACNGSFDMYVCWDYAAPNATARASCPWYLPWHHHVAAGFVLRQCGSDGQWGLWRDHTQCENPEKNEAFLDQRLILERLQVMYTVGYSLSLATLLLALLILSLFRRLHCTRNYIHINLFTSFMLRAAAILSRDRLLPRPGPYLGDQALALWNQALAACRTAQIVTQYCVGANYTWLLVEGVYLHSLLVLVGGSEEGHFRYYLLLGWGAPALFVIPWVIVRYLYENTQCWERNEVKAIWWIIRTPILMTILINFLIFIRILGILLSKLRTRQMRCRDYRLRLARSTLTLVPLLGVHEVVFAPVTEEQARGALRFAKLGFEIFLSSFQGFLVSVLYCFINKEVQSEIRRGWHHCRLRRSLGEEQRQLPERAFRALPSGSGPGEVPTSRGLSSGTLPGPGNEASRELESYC
Experiment description: GIP receptor-mediated bioluminescence in HEK293T cells with chimeric promiscuous G protein (FIG. 5, Table II)
Assay type: cell-based
Conditions: signal induced by maximal GIP (1 μM) divided by signal induced by buffer alone
Measured metric: Signal: background with GIP

Molecule	Measured
Mt-clytin K168Y: Mitochondrial K168Y modified Clytin, SEQ ID NO:28 (protein) MSVLTPLLLRGLTGSARRLPVPRAKIHSLPPEGKLRPNFDNPKWVNRHKFMFNFLDINGDGKITLDEIVSKASDDICAKLGATPEQTKRHQDAVEAFFKKIGMDYGKEVEFPAFVDGWKELANYDLKLWSQNKKSLIRDWGEAVFDIFDKDGSGSISLDEWKAYGRISGICSSDEDAEKTFKHCDLDNSGYLDVDEMTRQHLGFWYTLDPNADGLYGNFVP	112.8

Switching to the query record.
Please look up its Signal: background with GIP: Mt-clytin wt: Mitochondrial Wild-type Clytin (mt-Clytin), SEQ ID NO:5, with COX8 mitochondrial leader sequence (protein, listed as Clytia gregaria) MSVLTPLLLRGLTGSARRLPVPRAKIHSLPPEGKLRPNFDNPKWVNRHKFMFNFLDINGDGKITLDEIVSKASDDICAKLGATPEQTKRHQDAVEAFFKKIGMDYGKEVEFPAFVDGWKELANYDLKLWSQNKKSLIRDWGEAVFDIFDKDGSGSISLDEWKAYGRISGICSSDEDAEKTFKHCDLDNSGKLDVDEMTRQHLGFWYTLDPNADGLYGNFVP 146.5
